Molecular target: IL-17A/F (Homo sapiens, UniProt Q16552+Q96PD4)
Construct: purchased R&D Systems
Sequence (Q96PD4 31-163, one chain of several): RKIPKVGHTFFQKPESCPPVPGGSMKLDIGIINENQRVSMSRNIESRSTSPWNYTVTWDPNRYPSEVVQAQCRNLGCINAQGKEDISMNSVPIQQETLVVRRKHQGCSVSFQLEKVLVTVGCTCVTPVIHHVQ
Experiment: IL-17A/F HEK-Blue cell assay (SEAP reporter)
Assay type: cell-based
Conditions: HEK-Blue IL-17A reporter cells, IL17A/F 5 ng/mL, 20 hours, SEAP read at A630; read-out: HEK-Blue IL17AF (IC50 for IL-17A/F inhibition)
metric: IC50

>>> value_reported("CCn1nccc1C(=O)N[C@H](c1cn2nc(C[C@H]3CC4(CC4)CNC3=O)c(C3CCOCC3)nc2n1)C1CCC(F)(F)CC1")
"> 1 µM"
>>> value_reported("CCn1nccc1C(=O)N[C@H](c1cn2nc(C[C@H]3C[C@@H](C(F)(F)F)CNC3=O)c(C3CNC3)nc2n1)C1CCC(F)(F)CC1")
"> 1 µM"
>>> value_reported("CCn1nccc1C(=O)N[C@H](c1cn2nc(C[C@H]3C[C@@H](C(F)(F)F)CNC3=O)c(CN3CCCC4(CC4)C3)nc2n1)C1CCC(F)(F)CC1")
"> 1 µM"
>>> value_reported("CCn1nccc1C(=O)N[C@H](c1cn2nc(CC3C[C@@H](C(F)(F)F)CNC3=O)cnc2n1)C1CCC(F)(F)CC1 (stereo partly drawn) [Compound 24]")
"> 1 µM"
>>> value_reported("CCn1ccc(C(=O)N[C@H](c2cn3nc(C[C@H]4C[C@@H](C(F)(F)F)CNC4=O)c(C4CCOCC4)nc3n2)C2CCC(F)(F)CC2)n1")
"> 1 µM"
>>> value_reported("CCn1nccc1C(=O)N[C@H](c1cn2nc(CC3C[C@@H](C(F)(F)F)CNC3=O)c(N3CC4CC(C3)O4)nc2n1)[C@H]1CCCC(F)(F)C1 (single isomer, unassigned) [Compound 93]")
"0.1 to 1 µM"

---

Target: IL-17A/A (Homo sapiens, UniProt Q16552)
Sequence (Q16552 24-155): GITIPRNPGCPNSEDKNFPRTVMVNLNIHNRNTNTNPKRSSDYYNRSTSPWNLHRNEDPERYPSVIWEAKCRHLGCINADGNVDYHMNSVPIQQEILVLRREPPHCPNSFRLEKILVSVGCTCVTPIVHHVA
Assay: IL-17A/A HEK-Blue cell assay (SEAP reporter)
Settings: HEK-Blue IL-17A reporter cells, IL17A/A 5 ng/mL, 20 hours, SEAP read at A630; read-out: HEK-Blue IL17AA (IC50 for IL-17A/A inhibition)
Protocol: The HEK-Blue IL-17A reporter cell line (Fisher #NC 1408637) was used for cell-based IL-17A/A inhibition assays. Cells were grown and prepared for assays according to the manufacturer's instructions. […] Media from the cells is then added to a development reagent (Quanti-Blue Substrate, Fisher #NC971 1613), and read at A630. […]
pIC50: −log10 of the molar value.
Measured pIC50 of individual entries
metric: pIC50

>>> value_reported("CCn1nccc1C(=O)N[C@H](c1cn2nc(C[C@H]3C[C@@H](C(F)(F)F)CNC3=O)c(N3CCN4CCCC[C@@H]4C3)nc2n1)C1CCC(F)(F)CC1 [Compound 367]")
"> 7.00"
>>> value_reported("CCn1nccc1C(=O)N[C@H](c1cn2nc(C[C@H]3C[C@@H](C(F)(F)F)CNC3=O)c(CN3CC(C)(F)C3)nc2n1)C1CCC(F)(F)CC1 [Compound 337]")
"> 7.00"
>>> value_reported("CC(C)n1nccc1C(=O)N[C@H](c1cn2nc(CC3C[C@@H](C(F)(F)F)CNC3=O)c(N3CCOCC3)nc2n1)[C@H]1CC[C@H](C)CC1 (single isomer, unassigned) [Compound 101]")
"> 7.00"
>>> value_reported("CCn1nccc1C(=O)N[C@H](c1cn2nc(C[C@H]3C[C@@H](C(F)(F)F)CNC3=O)c(C(C)C)nc2n1)[C@H]1CC[C@H](C)CC1 [Compound 110]")
"> 7.00"
>>> value_reported("CCn1nccc1C(=O)N[C@@H](CCC(C)(C)C(F)(F)F)c1cn2nc(C[C@H]3C[C@@H](C(F)(F)F)CNC3=O)c(C3CCOCC3)nc2n1 (single isomer, unassigned) [Compound 217]")
"> 7.00"

---

Biological target: IL-17A/A (Homo sapiens, UniProt Q16552)
Test: IL-17A/A HEK-Blue cell assay (SEAP reporter)
Conditions: HEK-Blue IL-17A reporter cells, IL17A/A 5 ng/mL, 20 hours, SEAP read at A630; read-out: HEK-Blue IL17AA (IC50 for IL-17A/A inhibition)
pIC50: −log10 of the molar value.
Recorded pIC50 for the following molecules
metric: pIC50

>>> value_reported("CCc1nonc1C(=O)N[C@H](c1cn2nc(C[C@H]3C[C@@H](C(F)(F)F)CNC3=O)c(N3CCN(CCOC)CC3)nc2n1)C1CCC(F)(F)CC1")
"> 7.00"
>>> value_reported("CCn1nccc1C(=O)N[C@H](c1cn2nc(CN3C[C@@H](C(F)(F)F)NC3=O)c(C3CCOCC3)nc2n1)C1CCC(F)(F)CC1")
"6.00 to 7.00"
>>> value_reported("O=C(N[C@H](c1cn2nc(C[C@H]3C[C@@H](C(F)(F)F)CNC3=O)c(C3CCOCC3)nc2n1)C1CCC(F)(F)CC1)c1ccnn1CCN1CCOCC1")
"> 7.00"
>>> value_reported("CCn1nccc1C(=O)N[C@H](c1cn2nc(C[C@H]3C[C@@H](C(F)(F)F)CNC3=O)c(N3CCC4(CCOCC4)C3)nc2n1)C1CCC(F)(F)CC1")
"> 7.00"
>>> value_reported("CCn1nccc1C(=O)N[C@H](c1cn2nc(C[C@H]3C[C@@H](C(F)(F)F)CNC3=O)c([C@H]3COCCC3(F)F)nc2n1)C1CCC(F)(F)CC1 (single isomer, unassigned)")
"> 7.00"
>>> value_reported("CCn1ncnc1C(=O)N[C@H](c1cn2nc(C[C@H]3C[C@@H](C(F)(F)F)CNC3=O)c(C3CCOCC3)nc2n1)[C@H]1CC[C@H](C)CC1")
"> 7.00"
>>> value_reported("Cn1nccc1C(=O)N[C@H](c1cn2nc(C[C@H]3C[C@@H](C(F)(F)F)CNC3=O)c([C@@H]3CCCOC3)nc2n1)[C@H]1CCCC(F)(F)C1 (single isomer, unassigned)")
"> 7.00"
>>> value_reported("CCn1nccc1C(=O)N[C@H](c1cn2nc(C[C@@H]3CC(F)(F)CNC3=O)c(C3CCOCC3)nc2n1)[C@H]1CC[C@H](C)CC1")
"> 7.00"
>>> value_reported("CCn1nccc1C(=O)N[C@H](c1cn2nc(C[C@H]3C[C@@H](C(F)(F)F)CNC3=O)c([C@@H]3CCOC3)nc2n1)C(C1CC1)C1CC1 (single isomer, unassigned)")
"> 7.00"
>>> value_reported("CC(C)n1nccc1C(=O)N[C@H](c1cn2nc(C[C@H]3C[C@@H](C(F)(F)F)CNC3=O)cnc2n1)C1CCC(F)(F)CC1")
"> 7.00"
>>> value_reported("CCn1nccc1C(=O)N[C@H](c1cn2nc(C[C@@H]3C[C@@H](C(F)(F)F)CNC3=O)cnc2n1)[C@H]1CC[C@H](C)CC1")
"6.00 to 7.00"
>>> value_reported("CCn1nccc1C(=O)N[C@H](c1cn2nc(CC3C[C@@H](C(F)(F)F)CNC3=O)c(N3CCOCC3)nc2n1)[C@@H]1CCCC(F)(F)C1 (single isomer, unassigned) [Compound 95]")
"> 7.00"
>>> value_reported("Cn1nccc1C(=O)N[C@H](c1cn2nc(C[C@H]3C[C@@H](C(F)(F)F)CNC3=O)cnc2n1)C1CCC(F)(F)CC1")
"6.00 to 7.00"
>>> value_reported("CCc1nonc1C(=O)N[C@H](c1cn2nc(C[C@H]3C[C@@H](C(F)(F)F)CNC3=O)c(C3CCOCC3)nc2n1)C1CC2(C1)CC(F)(F)C2")
"> 7.00"
>>> value_reported("Cc1nonc1C(=O)N[C@H](c1cn2nc(C[C@H]3C[C@@H](C(F)(F)F)CNC3=O)c(C3CCOCC3)nc2n1)C1CC2(C1)CC(F)(F)C2")
"> 7.00"
>>> value_reported("CCn1nccc1C(=O)N[C@H](c1cn2nc(CC3C[C@@H](C(F)(F)F)CNC3=O)c(N3C[C@@H]4C[C@H]3CO4)nc2n1)C1CCC(F)(F)CC1 (single isomer, unassigned) [Compound 98]")
"> 7.00"
>>> value_reported("CCn1nccc1C(=O)N[C@H](c1cn2nc(C[C@H]3C[C@@H](C(F)(F)F)CNC3=O)c(CC3COCCO3)nc2n1)C1CCC(F)(F)CC1 (stereo partly shown)")
"6.00 to 7.00"
>>> value_reported("CCn1nccc1C(=O)N[C@H](c1cn2nc(C[C@H]3C[C@@H](C(F)(F)F)CNC3=O)c(C(C)(F)F)nc2n1)C1CCC(F)(F)CC1")
"> 7.00"
>>> value_reported("CCn1nccc1C(=O)N[C@H](c1cn2nc(C[C@H]3C[C@@H](C(F)(F)F)CNC3=O)c(CC3CCOCC3)nc2n1)C1CCC(F)(F)CC1")
"> 7.00"
>>> value_reported("CCn1nccc1C(=O)N[C@H](c1cn2nc(C[C@H]3C[C@@H](C(F)(F)F)CNC3=O)c(C(C)C)nc2n1)C1CCC(F)(F)CC1")
"> 7.00"
>>> value_reported("CCn1nccc1C(=O)N[C@H](c1cn2nc(C[C@H]3C[C@@H](C(F)(F)F)CNC3=O)c(C3CCCN(CCOC)C3)nc2n1)C1CCC(F)(F)CC1 (stereo partly shown)")
"> 7.00"
>>> value_reported("CCn1nccc1C(=O)N[C@@H](c1cn2nc(C[C@H]3C[C@@H](C(F)(F)F)CNC3=O)c(C3CCOCC3)nc2n1)C1CC2CC2C1 (stereo partly shown)")
"> 7.00"

Data origin, for the record: patent US20260226068A1
